Target: cynomolgus LIV-1 (cynomolgus, UniProt A0A2K5WH46 30-741)
Sequence (A0A2K5WH46 entry or part of it): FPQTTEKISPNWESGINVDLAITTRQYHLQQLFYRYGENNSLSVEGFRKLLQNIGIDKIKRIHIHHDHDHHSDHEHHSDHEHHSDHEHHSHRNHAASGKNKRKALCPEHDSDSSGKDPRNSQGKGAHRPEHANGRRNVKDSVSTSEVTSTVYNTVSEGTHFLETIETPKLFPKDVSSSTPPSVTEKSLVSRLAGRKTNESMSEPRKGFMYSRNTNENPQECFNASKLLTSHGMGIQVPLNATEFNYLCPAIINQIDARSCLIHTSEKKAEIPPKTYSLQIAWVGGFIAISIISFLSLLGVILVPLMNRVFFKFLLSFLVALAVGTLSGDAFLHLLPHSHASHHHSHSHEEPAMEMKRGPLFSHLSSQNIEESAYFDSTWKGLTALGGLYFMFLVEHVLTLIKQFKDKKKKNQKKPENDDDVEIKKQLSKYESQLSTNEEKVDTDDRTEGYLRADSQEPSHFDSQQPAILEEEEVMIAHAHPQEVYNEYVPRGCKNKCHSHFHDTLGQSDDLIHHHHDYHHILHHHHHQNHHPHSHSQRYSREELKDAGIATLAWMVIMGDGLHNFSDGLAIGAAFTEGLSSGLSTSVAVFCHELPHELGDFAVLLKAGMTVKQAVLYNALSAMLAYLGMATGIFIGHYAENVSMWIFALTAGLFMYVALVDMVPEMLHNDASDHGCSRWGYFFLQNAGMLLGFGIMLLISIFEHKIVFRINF
Assay: FACS, cyno LIV-1 cells
Readout Label: Top (MFI)
API: value field is a number in MFI; no unit string.

Consider the worked cases shown below.
{"columns": ["Binder", "Readout Value"],
 "data": [
  ["290F10G10.p1.Z13 (antibody, V domains shown) VH: EVQLVQSGAEVKKPGASVKVSCKASGYTFTSYWIHWVRQAPGQGLEWIGTIYPGDADTRSTQKFKDKATVTADKSTSTVYMELSSLRSEDTAVYYCTRSLIHDDYDKYYFDYWGQGTTVTVSS VL: DIQMTQSPSSLSASVGDRVTITCKARQDINKYIAWYQQKPGKAPKLLIYYTSILQPGVPSRFSGSGSGRDYTFTISSLQPEDIATYYCLQYDYFFTFGGGTKVEIK", 7180],
  ["290F10G10.p1.Z14 (antibody, V domains shown) VH: EVQLVQSGAEVKKPGASVKVSCKASGYTFTSYWIHWVRQAPGQGLEWIGTIYPGDADTRSTQKFKDKATVTADKSTSTVYMELSSLRSEDTAVYYCTRSLIHDDYDKYYFDYWGQGTTVTVSS VL: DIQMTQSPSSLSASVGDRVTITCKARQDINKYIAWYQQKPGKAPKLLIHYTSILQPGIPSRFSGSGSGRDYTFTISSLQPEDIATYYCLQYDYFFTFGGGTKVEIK", 7220],
  ["290F10G10.p1.Z2 (antibody, V domains shown, also called 290F10G10.z2; LM-001) VH: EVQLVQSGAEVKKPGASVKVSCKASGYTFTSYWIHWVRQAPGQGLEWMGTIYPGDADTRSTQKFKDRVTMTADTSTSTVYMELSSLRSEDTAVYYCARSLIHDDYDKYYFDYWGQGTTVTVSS VL: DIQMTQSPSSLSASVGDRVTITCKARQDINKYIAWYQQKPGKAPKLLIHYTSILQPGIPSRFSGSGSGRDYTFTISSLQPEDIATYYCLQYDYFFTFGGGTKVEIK", 7470],
  ["290F10G10.p1.Z4 (antibody, V domains shown) VH: EVQLVQSGAEVKKPGASVKVSCKASGYTFTSYWIHWVRQAPGQGLEWMGTIYPGDADTRSTQKFKDRVTVTADKSTSTVYMELSSLRSEDTAVYYCARSLIHDDYDKYYFDYWGQGTTVTVSS VL: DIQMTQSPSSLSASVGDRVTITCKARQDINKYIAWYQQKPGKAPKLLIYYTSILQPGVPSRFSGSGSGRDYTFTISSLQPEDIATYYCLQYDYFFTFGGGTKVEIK", 7140]
]}

Now for the binder whose Top (MFI) we want.
// sample 290F10G10.p1.Z12 (antibody, V domains shown) VH: EVQLVQSGAEVKKPGASVKVSCKASGYTFTSYWIHWVRQAPGQGLEWMGTIYPGDADTRSTQKFKDRVTVTADKSTSTVYMELSSLRSEDTAVYYCTRSLIHDDYDKYYFDYWGQGTTVTVSS VL: DIQMTQSPSSLSASVGDRVTITCKARQDINKYIAWYQHKPGKGPKLLIHYTSILQPGIPSRFSGSGSGRDYTFTISSLQPEDIATYYCLQYDYFFTFGGGTKVEIK , its Top (MFI) was 7510
